pKi: −log10 of the molar value.
Reported pKi, Muscarinic acetylcholine receptor M3 (Homo sapiens).
assayMetric: pKi

>>> print(df.to_string())
                                 smilesrepr  assaymetric  measurednumber
0  O=C(NCC1CCNCC1)[C@H]1CCCN1C(=O)[C@@H]1C[C@@H](O)CN1C(=O)CC(c1ccc(Cl)cc1)(c1ccc(Cl)cc1)c1ccc(Cl)cc1          pKi            9.41

(A) O=C(NCC1CCNCC1)[C@H]1CCCN1C(=O)[C@@H]1C[C@@H](O)CN1C(=O)CC(c1ccc(F)cc1)(c1ccc(F)cc1)c1ccc(F)cc1
(B) O=C(NCCC1CCNCC1)[C@H]1CCCN1C(=O)[C@@H]1CCCN1C(=O)CC(c1ccccc1)(c1ccccc1)c1ccccc1
(C) O=C(NCC1CCN(CC2CCCC2)CC1)[C@H]1CCCN1C(=O)[C@@H]1C[C@@H](O)CN1C(=O)CC(c1ccc(F)cc1)(c1ccc(F)cc1)c1ccc(F)cc1
Prompt line: Given 3 compounds, produce a descending ranking by pKi. Record the ranking as a list of labels in the requested order.
Response line: C, A, B
(C: 9.72, A: 9.52, B: 7.54)

====

Consider compounds characterized by their Ki with UniProtKB P11229.
Sequence (P11229 whole entry): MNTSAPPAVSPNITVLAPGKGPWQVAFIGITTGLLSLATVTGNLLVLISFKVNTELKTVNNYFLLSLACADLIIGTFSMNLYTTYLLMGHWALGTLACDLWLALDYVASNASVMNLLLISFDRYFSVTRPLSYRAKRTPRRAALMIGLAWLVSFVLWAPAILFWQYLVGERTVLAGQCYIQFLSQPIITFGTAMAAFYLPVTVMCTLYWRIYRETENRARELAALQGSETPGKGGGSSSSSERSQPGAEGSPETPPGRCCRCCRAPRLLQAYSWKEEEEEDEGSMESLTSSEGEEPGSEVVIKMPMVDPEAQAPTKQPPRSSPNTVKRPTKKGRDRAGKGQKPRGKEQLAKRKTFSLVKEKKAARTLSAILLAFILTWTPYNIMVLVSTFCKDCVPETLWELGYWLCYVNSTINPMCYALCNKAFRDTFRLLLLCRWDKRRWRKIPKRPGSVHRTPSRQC
assayMetric: Ki (nM)

>>> print(df.to_string())
                                 smilesrepr  measurednumber
0  O=C(NCCC1CCNCC1)[C@H]1CCCN1C(=O)[C@@H]1C[C@@H](O)CN1C(=O)CC(c1ccccc1)(c1ccccc1)c1ccccc1            2000
1  O=C(NCCC1CCNCC1)[C@H]1CCCN1C(=O)[C@@H]1C[C@@H](O)CN1C(=O)CC(c1ccc(Cl)cc1)(c1ccc(Cl)cc1)c1ccc(Cl)cc1             260

(P) O=C(NCC1CCN(CC2CC2)CC1)[C@H]1CCCN1C(=O)[C@@H]1C[C@@H](O)CN1C(=O)CC(c1ccc(F)cc1)(c1ccc(F)cc1)c1ccc(F)cc1
(Q) O=C(NCC1CCN(C2CCCC2)CC1)[C@H]1CCCN1C(=O)[C@@H]1C[C@@H](O)CN1C(=O)CC(c1ccc(F)cc1)(c1ccc(F)cc1)c1ccc(F)cc1
(R) O=C(NCC1CCNCC1)[C@H]1CCCN1C(=O)[C@@H]1C[C@@H](O)CN1C(=O)CC(c1ccccc1)(c1ccccc1)c1ccccc1
(S) CC(C)NC(=O)[C@H]1CCCN1C(=O)[C@@H]1C[C@@H](O)CN1C(=O)CC(c1ccc(F)cc1)(c1ccc(F)cc1)c1ccc(F)cc1
Prompt line: Hey, quick one: sort these by Ki, largest value first please. List the labels according to the requested ordering.
Response line: R, S, Q, P
(R: 1800 nM, S: 800 nM, Q: 210 nM, P: 65 nM)

====

measuredTarget: Muscarinic acetylcholine receptor M5 (Homo sapiens)
Sequence (P08912 whole entry): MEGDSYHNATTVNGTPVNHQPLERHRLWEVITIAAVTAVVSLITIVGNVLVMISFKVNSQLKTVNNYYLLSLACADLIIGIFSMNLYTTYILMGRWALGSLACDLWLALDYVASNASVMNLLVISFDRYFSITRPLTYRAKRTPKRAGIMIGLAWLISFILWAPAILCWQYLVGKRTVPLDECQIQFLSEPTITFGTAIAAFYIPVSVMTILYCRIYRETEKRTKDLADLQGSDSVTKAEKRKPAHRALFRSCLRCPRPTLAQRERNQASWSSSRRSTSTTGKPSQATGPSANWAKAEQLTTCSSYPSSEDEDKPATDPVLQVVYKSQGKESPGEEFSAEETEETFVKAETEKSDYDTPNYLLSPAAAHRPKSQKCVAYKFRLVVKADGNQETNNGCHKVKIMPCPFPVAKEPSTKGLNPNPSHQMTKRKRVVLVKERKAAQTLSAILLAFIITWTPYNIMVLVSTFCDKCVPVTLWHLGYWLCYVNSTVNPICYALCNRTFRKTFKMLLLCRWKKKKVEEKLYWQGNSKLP
assayMetric: Ki (nM)

>>> print(df.to_string())
                                 smilesrepr  measurednumber
0  O=C(NCCC1CCNCC1)[C@H]1CCCN1C(=O)[C@@H]1C[C@@H](O)CN1C(=O)CC(c1ccc(F)cc1)(c1ccc(F)cc1)c1ccc(F)cc1            1700

(a) O=C(NCC1CCN(CC2CCC2)CC1)[C@H]1CCCN1C(=O)[C@@H]1C[C@@H](O)CN1C(=O)CC(c1ccc(F)cc1)(c1ccc(F)cc1)c1ccc(F)cc1
(b) CN1CCC(CNC(=O)[C@H]2CCCN2C(=O)[C@@H]2C[C@@H](O)CN2C(=O)CC(c2ccc(F)cc2)(c2ccc(F)cc2)c2ccc(F)cc2)CC1
Prompt line: Lower Ki: a or b ? # respond with the chosen item's label
Response line: b
